From: PubChem BioAssay (NCI)

Tested on: HS 578T breast
TEST PROTOCOL: NCI tumour cell line growth inhibition, 48 h
ATTRIBUTE MEASURED: GI50

See these solved cases before continuing.
MOLECULE: O=[N+]([O-])c1cccc(-c2cc(-c3cc(Br)ccc3O)[nH]n2)c1
VALUE MEASURED: 2150 nM
//
MOLECULE: O=C1OCC2=C1C(c1cccc(C(F)(F)F)c1)c1cc3c(cc1N2CCO)CCC3 (stereo not given)
VALUE MEASURED: 146 nM
//
MOLECULE: COc1ccc(-c2csc3c2-n2cccc2C3=O)cc1O
VALUE MEASURED: < 16.5 nM
//
MOLECULE: Cc1ccccc1C(C(=O)NC1CCCCC1)N(C(=O)Cn1ccnc1C)c1cccc(F)c1 (stereo not given)
VALUE MEASURED: 28200 nM
//
MOLECULE: COc1cc(-c2n/c(=C\c3c(O)[nH]c4ccccc34)cc3c2=Nc2ccccc2-3)cc(OC)c1OC
VALUE MEASURED: 418 nM
//
MOLECULE: NC(N)=N/N=C/c1c(-c2ccc(Cl)c([N+](=O)[O-])c2)nc2ccccn12
VALUE MEASURED: 24200 nM
//
MOLECULE: Cc1ccc(C[P+](c2ccccc2)(c2ccccc2)c2ccccc2)cc1
VALUE MEASURED: 366 nM
//
MOLECULE: COc1ccc(-c2cc(-c3nnc(SCC(=O)Nc4ccc(C(C)=O)cc4)o3)c3ccccc3n2)cc1
VALUE MEASURED: 14200 nM

I need GI50 for every entry listed below, if you could help.
1. CNCCOC(=O)/C=C1/CCC2C(C(O)CC3C(C)(C(=O)OC)CCCC23C)C1C (stereo not given)
2. COc1ccc(-c2ccccc2)cc1-c1c(Nc2cc(Cl)cc(Cl)c2O)c(=O)c1=O

Result:
1. < 10 nM
2. 1250 nM
